// endpoint MIC / system Staphylococcus aureus FDA 209P
Measurement kind: MIC

Molecule	Result
CC(N)C(=O)NC(CCCNC(=N)N)C(O)CC(=O)OCC1=C(C(=O)O)N2C(=O)C(NC=O)(NC(=O)CCCC(N)C(=O)O)C2SC1 (stereo not drawn) [TAN-547 A]	> 50 mg/L
CC(N)C(=O)NC(C)C(=O)NC(CCCNC(=N)N)C(O)CC(=O)OCC1=C(C(=O)O)N2C(=O)C(NC=O)(NC(=O)CCCC(N)C(=O)O)C2SC1 (stereo not drawn) [TAN-547 B]	> 50 mg/L
CC(N)C(=O)NC(C)C(=O)NC(C)C(=O)NC(CCCNC(=N)N)C(O)CC(=O)OCC1=C(C(=O)O)N2C(=O)C(NC=O)(NC(=O)CCCC(N)C(=O)O)C2SC1 (stereo not drawn) [TAN-547 C]	> 50 mg/L
